Overview of recorded cytotoxicity at 70.5 h for various molecules
Experiment: Human HepG2 cell viability assay in 384 well format
Format: toxicity, cell-based
Parameters: dose 125 nL, time 70.5 hour; concentration not given beside the values
Settings: HepG2 cells, read-out: Inhibition
The reply should be a number in %, with the unit left off.

Consider the reported cytotoxicity at 70.5 h for these molecules:
CCC(C(=O)NCc1ccncc1)N(c1ccc(OC)cc1)S(C)(=O)=O (stereo unspecified) ... -4.69
CC(C)N(CCNCc1ccc(C#N)cc1)C1CC1 ... 17.7
Cc1csc(N2CCCN(Cc3ccn(C)c(=O)c3)CC2)n1 ... -3.93

What does the data say about its cytotoxicity at 70.5 h? Entry: CC(=O)c1cc(CN2CCCCC2c2nc3cc(F)ccc3[nH]2)cs1 (stereo unspecified) -5.07

What does the data say about its cytotoxicity at 70.5 h? Entry: COCC(=O)N1CCC2(C1)c1ccccc1S(=O)(=O)N2CCC(C)C (stereo unspecified) -5.31

What does the data say about its cytotoxicity at 70.5 h? Entry: O=C(NCc1cccc(F)c1)N1CCc2ncnc(NC3CC3)c2CC1 1.62

What does the data say about its cytotoxicity at 70.5 h? Entry: CNC(=O)[C@@]12CCO[C@@H]1CCN(S(=O)(=O)c1ccc(C)cc1)C2 -4.45

What does the data say about its cytotoxicity at 70.5 h? Entry: CCc1noc(CN(Cc2ccc3c(c2)OCO3)C2CCCC2)n1 -10.9

What does the data say about its cytotoxicity at 70.5 h? Entry: CN(Cc1noc2c1CCCC2)C(=O)Nc1cncc(F)c1 -7.85

What does the data say about its cytotoxicity at 70.5 h? Entry: CNC(=O)c1cc2c(nc1NCC(C)C)CCN(S(C)(=O)=O)CC2 -5.11

What does the data say about its cytotoxicity at 70.5 h? Entry: COC(=O)[C@@H]1CN(C(=O)c2cscn2)C[C@H]1c1ccc(OC)cc1 -1.39
